B1: tRNA (parent)
chain: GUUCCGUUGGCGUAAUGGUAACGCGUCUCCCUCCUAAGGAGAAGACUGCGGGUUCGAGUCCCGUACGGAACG

Variants of: B1
assay.notes: yeast fitness, log relative to wild type (ln ratio); higher = fitter; tRNA-Arg(CCU), competitive growth, 37 C, 1 M NaCl
Please enter Fulfilled where yeast fitness (ln) is greater than or equal to -0.2, and Not fulfilled where it is lower.

{"columns": ["mutant", "cat"],
 "data": [
  ["G6U A43C C46U C66A A70G C71U", "Not fulfilled"],
  ["G1A U2G G6U C27U A43C C46U C66U A69G A70U C71U", "Not fulfilled"],
  ["U2G C27U C46U A70G", "Fulfilled"],
  ["U2C C27U A43C C66A A69G A70G C71U", "Not fulfilled"],
  ["G1A U2G G6U A43C C46U C66U A69G C71U", "Not fulfilled"],
  ["G1A U2G G6A C27U C46U C66A A69G A70G C71U", "Not fulfilled"],
  ["G1A G6U C27U C46U A70U C71U", "Not fulfilled"],
  ["U2G C46U C66U A70G C71U", "Fulfilled"],
  ["G1A G6U C27U A69G A70G", "Not fulfilled"],
  ["U2C G6U A43C C66U A69G A70U", "Not fulfilled"],
  ["U2C G6U C27U C66A", "Not fulfilled"],
  ["U2G G6A C66U A69G A70U C71U", "Not fulfilled"],
  ["U2G G6A A43C C46U A70U", "Not fulfilled"],
  ["U2G C27U A43C A69G", "Fulfilled"]
]}
